# Test system: Wheat and Barley and weed species
# Method: Post-Emergent Test III: postemergent herbicidal activity in wheat and barley, visual rating after 21 d and probit GR20/GR50/GR80/GR90 (Tables 9-13)
# Assay type: in vivo
# Applied Conditions: KCHSC kochia (Kochia scoparia); growth reduction of 90%; probit analysis
Quantity Kind: GR90 KCHSC

Consider the reported GR90 KCHSC for these compounds:
COC(=O)c1nc(-c2ccc3c(c2)OC(C)(C)O3)c(F)c(N)c1Cl [Compound 8] :: >70 g ai/ha
COC(=O)c1nc(-c2cc3c(cc2F)OC(F)(F)O3)c(F)c(N)c1Cl [Compound 9] :: >70 g ai/ha
COC(=O)c1nc(-c2c(F)cc3c(c2F)OC(F)(F)O3)cc(N)c1Cl [Compound 46] :: 17 g ai/ha

What value of GR90 KCHSC has been recorded for this entry: COC(=O)c1nc(-c2ccc(Br)c3c2OC(F)(F)O3)c(F)c(N)c1Cl [Compound 78] 19 g ai/ha

Now try Nc1cc(-c2cc3c(cc2F)OC(F)(F)O3)nc(C(=O)O)c1Cl [Compound 42] . >140 g ai/ha

Next compound: Nc1c(F)c(-c2ccc(Cl)c3c2OC(F)(F)O3)nc(C(=O)O)c1Cl [Compound 82] >140 g ai/ha

Same for COC(=O)c1nc(-c2ccc3c(c2F)OC(F)(F)O3)c(F)c(N)c1Cl [Compound 10] >140 g ai/ha

* * *

# System: Key Broadleaf Weed and Crop Species
# Method: Post-Emergent Test II: postemergent herbicidal activity, visual rating after 14 d (Table 7)
# Format: in vivo
# Applied Conditions: post-emergence, 336 h, wild poinsettia (Euphorbia heterophylla), 35 g ai/ha, read-out: Visual Growth Reduction (%) 14 Days After Application EPHHL
Quantity Kind: pest or weed control at 35 g/ha

Below are worked cases with known answers.
COC(=O)c1nc(-c2ccc3c(c2F)OC(F)(F)O3)c(Cl)c(N)c1Cl :: 0 to 29%
Nc1c(F)c(-c2cccc3c2OCO3)nc(C(=O)O)c1Cl :: 0 to 29%
COC(=O)c1nc(-c2cc3c(cc2F)OC(F)(F)O3)nc(N)c1OC :: 75 to 84%
COC(=O)c1nc(-c2ccc3c(c2)OC(F)(F)O3)nc(N)c1OC :: 95 to 100%
COC(=O)c1nc(-c2ccc(Cl)c3c2OC(F)(F)O3)c(F)c(N)c1Cl :: 0 to 29%

Can you share its pest or weed control at 35 g/ha? I mean this compound: COc1cc(-c2nc(C(=O)O)c(Cl)c(N)c2F)cc2c1OCO2 0 to 29%

Also, CC1(C)Oc2ccc(-c3nc(C(=O)O)c(Cl)c(N)c3F)cc2O1 please. 95 to 100%

// same read-out, input: Nc1c(F)c(-c2ccc(Br)c3c2OC(F)(F)O3)nc(C(=O)O)c1Cl 0 to 29%

Consider next the compound COC(=O)c1nc(-c2ccc(F)c3c2OC(F)(F)O3)c(F)c(N)c1Cl in the same way. 0 to 29%

* * *

# Test system: Key Grass and Sedge Weeds as well as Grass Crops
# Method: Post-Emergent Test II: postemergent herbicidal activity, visual rating after 14 d (Table 8)
# Assay type: in vivo
# Applied Conditions: post-emergence, 336 h, barnyardgrass (Echinochloa crus-galli), 70 g ai/ha, read-out: Visual Growth Reduction (%) 14 Days After Application ECHCG
Quantity Kind: pest or weed control at 70 g/ha

COC(=O)c1nc(-c2cc3c(cc2F)OCO3)c(F)c(N)c1Cl [Compound 16] :: 60 to 74%
COC(=O)c1nc(-c2ccc3c(c2F)OC(F)(F)O3)cc(N)c1Cl [Compound 37] :: 95 to 100%
COC(=O)c1nc(-c2cccc3c2OCO3)c(F)c(N)c1Cl [Compound 71] :: 0 to 29%
COC(=O)c1nc(-c2ccc3c(c2)OC(C)O3)c(F)c(N)c1Cl (stereo not drawn) [Compound 20] :: 75 to 84%
COC(=O)c1nc(-c2ccc3c(c2)OC(F)(F)O3)c(F)c(N)c1Cl [Compound 6] :: 95 to 100%
Nc1c(F)c(-c2ccc(I)c3c2OC(F)(F)O3)nc(C(=O)O)c1Cl [Compound 81] :: 0 to 29%
COC(=O)c1nc(-c2ccc3c(c2)OC(C)(C)O3)nc(N)c1Cl [Compound 55] :: 75 to 84%
COC(=O)c1nc(-c2ccc(Cl)c3c2OC(F)(F)O3)c(Cl)c(N)c1Cl [Compound 70] :: 0 to 29%
COC(=O)c1nc(-c2cc3c(cc2F)OCO3)nc(N)c1OC [Compound 69] :: 0 to 29%
C=Cc1c(C(=O)O)nc(-c2cc3c(cc2F)OC(F)(F)O3)c(F)c1N [Compound 28] :: 75 to 84%

Which pest or weed control at 70 g/ha is listed for Nc1nc(-c2ccc3c(c2F)OC(F)(F)O3)nc(C(=O)O)c1Cl [Compound 59] ? 75 to 84%

Could you do the same for Nc1cc(-c2cc3c(cc2F)OC(F)(F)O3)nc(C(=O)O)c1Cl [Compound 42] , please? 95 to 100%

Then this compound: Nc1cc(-c2cc(F)c3c(c2)OC(F)(F)O3)nc(C(=O)O)c1Cl [Compound 44] 60 to 74%

Next entry: COC(=O)c1nc(-c2ccc(Cl)c3c2OC(F)(F)O3)c(F)c(N)c1Cl [Compound 75] 0 to 29%

# iterate: COC(=O)c1nc(-c2cc3c(cc2F)OCO3)cc(N)c1Cl [Compound 45] 75 to 84%

Can you handle Nc1c(F)c(-c2ccc(F)c3c2OC(F)(F)O3)nc(C(=O)O)c1Cl [Compound 77] next? 0 to 29%

Another compound to look at: COC(=O)c1nc(-c2cccc3c2OC(F)(F)O3)c(F)c(N)c1Cl [Compound 73] 0 to 29%

Now the compound COC(=O)c1nc(-c2cc3c(cc2F)OC(F)(F)O3)c(F)c(N)c1Cl [Compound 9] 85 to 94%

What do you have for COC(=O)c1nc(-c2ccc3c(c2OC)OC(F)(F)O3)cc(N)c1Cl [Compound 47] ? 0 to 29%

Same question, COC(=O)c1nc(-c2ccc(Br)c3c2OC(F)(F)O3)c(F)c(N)c1Cl [Compound 78] this time 0 to 29%

Note, next up: COC(=O)c1nc(-c2cc3c(cc2F)OC(F)(F)O3)c(F)c(N)c1OC [Compound 22] 0 to 29%

Another compound to check: COc1c(C(=O)O)nc(-c2ccc3c(c2)OC(F)(F)O3)c(F)c1N [Compound 25] 85 to 94%

Same for COc1cc(-c2nc(C(=O)O)c(Cl)c(N)c2F)cc2c1OCO2 [Compound 15] 0 to 29%

Also COC(=O)c1nc(-c2cc3c(cc2Cl)OC(F)(F)O3)cc(N)c1Cl [Compound 40] ? 0 to 29%

Proceed to COC(=O)c1nc(-c2cc3c(cc2F)OC(F)(F)O3)nc(N)c1OC [Compound 64] 45 to 59%

Continue with COC(=O)c1nc(-c2cc3c(cc2Cl)OC(F)(F)O3)c(F)c(N)c1Cl [Compound 12] 0 to 29%

Next record, please: COC(=O)c1nc(-c2cc3c(cc2OC)OC(F)(F)O3)cc(N)c1Cl [Compound 38] 0 to 29%
